System: KLK3 mRNA
EXPERIMENT DESCRIPTION: KLK3 mRNA (AR target gene) in C4-2B MR cells
Type: cell-based, human
ASSAY SETUP: 1.00 μM
Oligonucleotides are written 5' to 3', each unit as a sugar letter and its base; * is a phosphorothioate linkage, no mark a phosphodiester; rarer units and linkages stand in square brackets, end groups in braces. Plain capitals give the bases only. e = 2'-O-(2-methoxyethyl) (MOE); l = locked nucleic acid (LNA); k = constrained ethyl (cEt); [5mC] = 5-methylcytosine; d = 2'-deoxy (DNA)
Would you mind telling me the reported Percent inhibition of KLK3 mRNA in C4-2B MR cells of each entry?
Numbers only, in %.

Record Percent inhibition of KLK3 mRNA in C4-2B MR cells per entry; entries follow.
1. 549458 (kG*kT*kT*dG*dA*dT*dT*dT*dA*dA*dT*dG*dG*kT*kT*kG) [compound 549458]
2. 347526 (TCTTATGTTTCCGAACCGTT; sugars from the 5' end e5 d10 e5, backbone and methylation of C not given here) [compound 347526]
3. 549434 (k[5mC]*kT*kA*dA*dA*d[5mC]*dT*dT*d[5mC]*d[5mC]*d[5mC]*dG*dT*kG*kG*k[5mC]) [compound 549434]
4. 554221 (ACCAAGTTTCTTCAGC; sugars from the 5' end l3 d10 l3, all phosphorothioate, methylation of C not given here) [compound 554221]
5. 549372 (kA*kA*kG*dT*dT*dG*dT*dA*dG*dT*dA*dG*dT*k[5mC]*kG*k[5mC]) [compound 549372]

-- reply
1. 81
2. 42
3. 42
4. 47
5. 68

====

Test system: prostate-specific antigen (PSA) mRNA
EXPERIMENT DESCRIPTION: PSA mRNA levels in LMR20 cells
Format: cell-based, human
ASSAY SETUP: LMR20 cells, no AR agonist, ASO 0.04 μM
Oligonucleotides are written 5' to 3', each unit as a sugar letter and its base; * is a phosphorothioate linkage, no mark a phosphodiester; rarer units and linkages stand in square brackets, end groups in braces. Plain capitals give the bases only. e = 2'-O-(2-methoxyethyl) (MOE); l = locked nucleic acid (LNA); k = constrained ethyl (cEt); [5mC] = 5-methylcytosine; d = 2'-deoxy (DNA)
MEASURED PROPERTY: PSA mRNA levels (% baseline value) of cells without AR agonist treatment
One number for each entry, in % baseline value.

In the examples that follow, each entry is paired with its recorded PSA mRNA levels (% baseline value) of cells without AR agonist treatment.
SUBSTANCE	RECORDED VALUE
549458 (kG*kT*kT*dG*dA*dT*dT*dT*dA*dA*dT*dG*dG*kT*kT*kG) [compound 549458]	135
554221 (ACCAAGTTTCTTCAGC; sugars from the 5' end l3 d10 l3, all phosphorothioate, methylation of C not given here) [compound 554221]	106
569236 (antisense eT*kG*kA*kT*dT*dT*dA*dA*dT*dG*dG*kT*kT*kG*e[5mC]*eA) [compound 569236]	122

-- ask Which measured PSA mRNA levels (% baseline value) of cells without AR agonist treatment belongs to 560131 (antisense kT*kT*kG*dA*dT*dT*dT*dA*dA*dT*dG*dG*kT*kT*kG*e[5mC]) [compound 560131] , tested on prostate-specific antigen (PSA) mRNA?
-- reply 113
